Origin of values: paper PMC5896570

biological target: full-length human A2AR (Homo sapiens); type: binding; conditions: read-out: Kinetic KD; numerical solution, fixed KD 22 nM, mean ± SEM, n=16
Sequence (P29274 whole entry): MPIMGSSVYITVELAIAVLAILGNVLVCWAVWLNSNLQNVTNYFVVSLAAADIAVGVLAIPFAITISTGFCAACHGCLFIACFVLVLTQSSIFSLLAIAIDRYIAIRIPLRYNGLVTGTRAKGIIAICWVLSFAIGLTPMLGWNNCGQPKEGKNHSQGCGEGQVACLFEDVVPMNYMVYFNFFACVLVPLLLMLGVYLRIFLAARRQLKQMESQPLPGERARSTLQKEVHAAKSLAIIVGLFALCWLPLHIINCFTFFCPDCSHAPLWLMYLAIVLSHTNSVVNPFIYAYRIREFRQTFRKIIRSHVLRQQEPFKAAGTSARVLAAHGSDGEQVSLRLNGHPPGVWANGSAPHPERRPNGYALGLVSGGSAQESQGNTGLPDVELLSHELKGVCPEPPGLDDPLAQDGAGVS
experimental-readout: pKd
Field pKd (float): negative decimal logarithm of the concentration in molar.

Q: Tell me the measured pKd of CCNC(=O)[C@H]1O[C@@H](n2cnc3c(N)nc(NCCc4ccc(CCC(=O)NCCNC(=S)Nc5ccc6c(c5)C(=O)OC6(c5ccc(O)cc5)c5ccc(O)cc5)cc4)nc32)[C@H](O)[C@@H]1O [FITC-APEC] , please.
Result: 7.66

----------
target: full-length human A2AR (Homo sapiens); format: binding; details: read-out: Kinetic KD; analytical solution, fixed α 5.6%, mean ± SEM, n=16
experimental-readout: pKd
Field pKd (float): negative decimal logarithm of the concentration in molar.

Q: Tell me the measured pKd of CCNC(=O)[C@H]1O[C@@H](n2cnc3c(N)nc(NCCc4ccc(CCC(=O)NCCNC(=S)Nc5ccc6c(c5)C(=O)OC6(c5ccc(O)cc5)c5ccc(O)cc5)cc4)nc32)[C@H](O)[C@@H]1O , please.
Result: 7.14
